- EXPERIMENT_SUMMARY: gradient 5% acetonitrile 3 min, to 50% in 2 min, to 85% in 15 min, held 3 min, 100 µL/min
- TEST_SETTINGS: column: Zorbax Extend-C18 2.1 x 50 mm; eluents: water / acetonitrile, 0.1% formic acid
Give RP-LC retention time for every item shown.
Kindly answer with a numeric value in s, unit omitted.

Look at this compound and give its reported RP-LC retention time. CC(Cc1ccco1)NC(=O)c1cc(S(=O)(=O)N2CCCCC2)ccc1Cl (stereo not given) 967

Then this compound: "COc1ccc(-c2nc3ncccn3c2NCc2ccccc2)cc1OC" 682

Now this one: "COCCC(=O)Nc1ccc2c(c1)CCC(=O)N2C" 609

# iterate: COc1cc(NC(=O)N2CCCC(Cn3cnc4cccnc43)C2)cc(OC)c1OC (stereo not given) 627

Try this compound next: "N#Cc1cn(CC(=O)NCc2ccc3c(c2)OCCCO3)c2ccccc12" 842

Same read-out for "CCOC(=O)C1CCN(C(=O)c2sc(Nc3cccc(C)n3)nc2C)CC1" ? 774

Thanks! And "CC(=O)N1CCc2ccc(NC(=O)Nc3ccccc3Cl)cc21" ? 755

Now consider CCOc1ccc(S(=O)(=O)N2CCCC(C(=O)NCCOC)C2)cc1 (stereo not given) . 709

"O=C(NCCc1nc2ccccc2n1CC(=O)N1CCCC1)c1cccnc1" , same question. 566

What about "Cc1cccc(Nc2c(-c3cccc(O)c3)nc3cnccn23)c1C" ? 816
